Hello, the source for this data is ChEMBL document CHEMBL3425447, in case you need it.

- Method: Growth inhibition of human NUGC3 cells after 5 days by sulforhodamine B assay
- Format: functional
- Run parameters: NUGC-3, 120 h
// reported GI50 per item
I only need the number, in nM, no unit after it.

Ask | Which value of GI50 has been reported for O=C(/C=C/c1cccn(Cc2cccc(Br)c2)c1=O)NO in the records?
Reply | 2780

***
Ask | Look up GI50: O=C(/C=C/c1cccn(Cc2ccc3ccccc3n2)c1=O)NO
Reply | 710

Ask | Recorded GI50 of COc1cccc(CCn2cccc(/C=C/C(=O)NO)c2=O)c1 , please.
Reply | 2910

Ask | Quick one: GI50 of COc1cccc(CCCn2cccc(/C=C/C(=O)NO)c2=O)c1 ?
Reply | 1050

Ask | # input compound: O=C(/C=C/c1cccn(Cc2ccc(Br)cc2)c1=O)NO ; wanted: its GI50
Reply | 2110

Ask | Data request, read-out GI50, for O=C(/C=C/c1cccn(CCc2cccc(Br)c2)c1=O)NO
Reply | 1990

====

- Method: Metabolic stability in human liver microsomes assessed as compound remaining at 1 uM after 60 mins byLC-ESI/MS/MS analysis in presence of UDPGA
- Type: ADME
- Run parameters: read-out: Stability
Recorded metric: remaining at 1 h, 1 µM

Ask | Consider the molecule O=C(/C=C/c1cccn(Cc2ccc3ccccc3n2)c1=O)NO and give its measured remaining at 1 h, 1 µM.
Reply | 99.7%

====

- Method: Growth inhibition of human HCT15 cells after 5 days by sulforhodamine B assay
- Type: functional
- Run parameters: HCT-15, 120 h
// reported GI50 per item
The reply should be a number in µM, with the unit left off.

Here is how some compounds turned out for GI50.
Ask | Field request: GI50 | item: COc1cccc(Cn2cccc(/C=C/C(=O)NO)c2=O)c1
Reply | 2.6

Ask | If you can, please state the reported GI50 value of CC(C)(C)c1ccc(CCCn2cccc(/C=C/C(=O)NO)c2=O)cc1 .
Reply | 1.42

Ask | Entry under review: CCOc1ccccc1CCCn1cccc(/C=C/C(=O)NO)c1=O . Reported GI50?
Reply | 0.66

# context switch: different compound, same GI50
Ask | Given COc1ccc(Cn2cccc(/C=C/C(=O)NO)c2=O)cc1 , state its recorded GI50.
Reply | 4.52

====

- Method: Tmax in Sprague-Dawley rat at 10 mg/kg, po by LC-MS/MS analysis
- Assay type: ADME, organism-based
- Parameters: dose 10 mg/kg, route oral
- Run parameters: in vivo
Recorded metric: Tmax

Ask | Which measured Tmax value corresponds to O=C(/C=C/c1cccn(Cc2ccc3ccccc3n2)c1=O)NO ?
Reply | 40.2 min

====

- Measured target: Histone deacetylase
- Method: Inhibition of HDAC in human HeLa cell nuclear extract using Fluor de Lys as substrate incubated with compound for 30 mins by microtiter-plate reading flourimeter analysis
- Assay type: protein assay
IC50 reference
Report the value in nM with no unit label.

Consider the following illustrative entries.
Ask | Which measured IC50 value corresponds to CCc1ccccc1Cn1cccc(/C=C/C(=O)NO)c1=O ?
Reply | 230

Ask | Record request: IC50 value, item O=C(/C=C/c1cccn(Cc2ccc(Br)cc2)c1=O)NO
Reply | 100

Ask | Looking for the measured IC50 of CC(C)(C)c1ccc(CCCn2cccc(/C=C/C(=O)NO)c2=O)cc1 , can you help?
Reply | 380

Ask | Name the recorded IC50 for COc1ccc(CCCn2cccc(/C=C/C(=O)NO)c2=O)cc1 .
Reply | 140

Ask | // IC50 lookup, key: COc1cccc(CCn2cccc(/C=C/C(=O)NO)c2=O)c1
Reply | 70

Ask | Looking for the measured IC50 of CCOc1ccccc1CCn1cccc(/C=C/C(=O)NO)c1=O , can you help?
Reply | 320

Ask | Which IC50 value is on record for O=C(/C=C/c1cccn(CCc2cccc(Br)c2)c1=O)NO ?
Reply | 160

Ask | Please report the recorded IC50 for O=C(/C=C/c1cccn(Cc2ccccc2Br)c1=O)NO .
Reply | 190

Ask | Please look up its IC50: CCc1ccc(CCn2cccc(/C=C/C(=O)NO)c2=O)cc1
Reply | 70

Ask | Return reported IC50; argument: O=C(/C=C/c1cccn(CCCc2ccccc2Br)c1=O)NO
Reply | 480

Others:
Ask | I'd like to know its IC50. The molecule in question is O=C(/C=C/c1cccn(Cc2ccccn2)c1=O)NO
Reply | 460

Ask | # IC50 lookup, item O=C(/C=C/c1cccn(CCc2ccc(Br)cc2)c1=O)NO
Reply | 360

Ask | Consider the molecule COc1cccc(CCCn2cccc(/C=C/C(=O)NO)c2=O)c1 and give its measured IC50.
Reply | 30

Ask | What value of IC50 has been reported for the following molecule? CCOc1ccccc1CCCn1cccc(/C=C/C(=O)NO)c1=O
Reply | 50

====

Activity by entry:
- System: C2C12
- Method: Induction of RUNX transcriptional activation in mouse C2C12-6xOSE2 cells at 1 uM after 24 hrs by luciferase reporter assay relative to FGF-2
- Format: functional
Kindly answer with a numeric value in %, unit omitted.

Ask | Endpoint output: Activity of O=C(/C=C/c1cccn(Cc2cccc(Br)c2)c1=O)NO . Value?
Reply | 91.6

Ask | I would be grateful if you could share the reported Activity for O=C(CCCCCCC(=O)Nc1ccccc1)NO .
Reply | 80.2

Ask | Data request, read-out Activity, for CCc1ccc(Cn2cccc(/C=C/C(=O)NO)c2=O)cc1
Reply | 74.3

====

- Method: Growth inhibition of human HCT15 cells after 5 days by sulforhodamine B assay
- Type: functional
- Run parameters: HCT-15, 120 h
Recorded metric: GI50

Ask | Reported GI50, molecule O=C(/C=C/c1cccn(Cc2ccncc2)c1=O)NO : ____
Reply | > 10000 nM

Ask | Form field: reported GI50 of COc1cccc(CCCn2cccc(/C=C/C(=O)NO)c2=O)c1
Reply | 1590 nM

====

- Measured target: Histone deacetylase
- Method: Inhibition of HDAC in human HeLa cell nuclear extract using Fluor de Lys as substrate incubated with compound for 30 mins by microtiter-plate reading flourimeter analysis
- Assay type: protein assay
Recorded metric: IC50 (µM)
Quick note: give the figure in µM, leave out the unit.

Ask | Tell me the measured IC50 of CCOc1cccc(CCn2cccc(/C=C/C(=O)NO)c2=O)c1 , please.
Reply | 0.12

Ask | Which IC50 value belongs to COc1cccc(Cn2cccc(/C=C/C(=O)NO)c2=O)c1 ?
Reply | 0.15

Others:
Ask | Give its IC50 value. Item: CCOc1ccc(CCn2cccc(/C=C/C(=O)NO)c2=O)cc1
Reply | 0.07

====

- Test system: C2C12
- Method: Induction of RUNX transcriptional activation in mouse C2C12-6xOSE2 cells at 1 uM after 24 hrs by luciferase reporter assay relative to FGF-2
- Assay type: functional
Recorded metric: Activity (%)
Form entry: value (%) — number only.

Use the examples below as a reference point.
Ask | Short answer please: Activity, C2C12, entry CCc1ccc(CCn2cccc(/C=C/C(=O)NO)c2=O)cc1
Reply | 106

Ask | API: value(readout= Activity, system= C2C12, query= O=C(/C=C/c1cccn(Cc2ccccc2Br)c1=O)NO )
Reply | 86

Ask | // lookup Activity | system=C2C12 | key= CC(C)(C)c1ccc(Cn2cccc(/C=C/C(=O)NO)c2=O)cc1
Reply | 46.4

Ask | Please tell me: Activity of O=C(/C=C/c1cccn(CCc2ccccn2)c1=O)NO , system C2C12?
Reply | 26.7

Ask | Hi! What's the reported Activity for COc1cccc(Cn2cccc(/C=C/C(=O)NO)c2=O)c1 on C2C12?
Reply | 200

Ask | Provide the documented Activity with C2C12 as the system for O=C(/C=C/c1cccn(Cc2ccc3ccccc3n2)c1=O)NO
Reply | 687.5

Ask | Short answer please: Activity, C2C12, entry O=C(/C=C/c1cccn(Cc2cccnc2)c1=O)NO
Reply | 32.3

Ask | Record CCc1ccccc1Cn1cccc(/C=C/C(=O)NO)c1=O : what is its Activity with C2C12?
Reply | 52.3

Ask | Provide the documented Activity with C2C12 as the system for COc1cccc(CCCn2cccc(/C=C/C(=O)NO)c2=O)c1
Reply | 142.1

Ask | GET /values?readout=Activity&system=C2C12&item= O=C(/C=C/c1cccn(CCCc2ccc(Br)cc2)c1=O)NO
Reply | 53.8

Further cases:
Ask | # returns recorded Activity (system: C2C12) for CCOc1ccccc1CCn1cccc(/C=C/C(=O)NO)c1=O
Reply | 30.9

Ask | What reported Activity corresponds to COc1ccc(CCCn2cccc(/C=C/C(=O)NO)c2=O)cc1 on C2C12?
Reply | 97.6

Ask | Param readout= Activity; system= C2C12; entry= O=C(/C=C/c1cccn(CCCc2cccnc2)c1=O)NO ; returns value.
Reply | 30
